Cited source: patent US20240139125A1

protocol_notes: Cell viability for BIA and analogues, HT1080 cell line
Type: cell-based
condition: human, HT1080 fibrosarcoma cells, HT1080, 10 uM
So basically: is viability at 10 µM under 50%? Then Condition met. Not under? Then Condition not met.

Example results:
CCOc1ccc([N+](=O)[O-])cc1C(O)CC(=O)c1ccccc1N (stereo not drawn); Condition not met
COc1cc(N)c(C(=O)/C=C/c2cc(O)cc(Br)c2)cc1OC; Condition met
Nc1ccccc1C(=O)/C=C/c1cccnc1; Condition met
Nc1ccccc1-c1cc(-c2cccc(C(F)(F)F)c2)on1; Condition not met
Nc1ccccc1C(=O)/C=C/c1cc(O)cc(Br)c1; Condition met

viability at 10 µM under 50%? Item: CC(C)(C)OC(=O)Nc1cccc(/C=C/C(=O)c2ccccc2N)c1
Condition met

Please determine if O=C(/C=C/c1cccc([N+](=O)[O-])c1)c1ccccc1O is below 50% in terms of viability at 10 µM.
Condition not met

Say whether its viability at 10 µM is strictly beneath 50%. Entry: COc1cccc(/C=C/C(=O)c2ccccc2N)c1
Condition met

Is it true that viability at 10 µM reported for Cc1cccc(/C=C/C(=O)c2ccccc2N)c1 is less than 50%?
Condition met

Quick check: viability at 10 µM of COc1cc(N)c(C(=O)/C=C/c2cccc([N+](=O)[O-])c2)cc1OC under 50%?
Condition met

Hello, is viability at 10 µM of the following compound strictly smaller than 50%? COc1cccc(/C=C/C(=O)c2cc(OC)c(OC)cc2N)c1
Condition met

Problem: For the compound Nc1ccccc1C(=O)/C=C/c1cccc(Br)c1 , is viability at 10 µM under 50%?
Condition met

Lab log: compare recorded viability at 10 µM with 50%; is it strictly lower for CCOc1cccc(/C=C/C(=O)c2ccccc2N)c1 ?
Condition not met

----------
protocol_notes: Cell viability for BIA and analogues, HT1080 cell line
Assay type: cell-based
condition: human, HT1080 fibrosarcoma cells, HT1080, 10 uM
Structures can show the parent of a compound that is named as a salt.
Recorded viability at 10 µM by entry
Numeric only. Scale: %

Nc1ccccc1C(=O)/C=C/c1ccc2ccccc2c1 [GM-90225]; 43.5
Nc1ccc(F)cc1C(=O)/C=C/c1cccc([N+](=O)[O-])c1 [GM-90298]; 19
CCOc1ccc([N+](=O)[O-])cc1/C=C/C(=O)c1ccccc1N [GM-90229]; 15.7
N/C(=N\O)c1cccc(/C=C/C(=O)c2ccccc2N)c1 [GM-90338]; 10.5
COc1ccc(C(=O)/C=C/c2cccc([N+](=O)[O-])c2)c(N)c1 [GM-90297]; 18.2
Nc1cccc(/C=C/C(=O)c2ccccc2N)c1 [GM-90315, Hydrochloride]; 11.2

// Input: CNC(=O)c1cccc(/C=C/C(=O)c2ccccc2N)c1 [GM-90300] . Output its viability at 10 µM only.
23.4

Give the reported value of viability at 10 µM for this record: Nc1ccccc1C(=O)/C=C/c1ccc(OC(F)(F)F)cc1 [GM-90222]
92

Output measured viability at 10 µM for this item: Nc1ccccc1C(=O)/C=C/c1cc(F)c(O)c(F)c1 [GM-90316]
67.8

Please look at this molecule and report its viability at 10 µM: Nc1ccccc1C(=O)/C=C/c1ccncc1 [GM-90228]
22.8
